From: patent US20200188466A1

test protocol: Plasma kinetic study of colchicine with and without Schisandrin A
Type: in vivo
experimental conditions: male, Sprague Dawley, rat, po, 3 mg/kg, Group1, rats, colchicine 3.0 mg/kg oral, no Schisandrin A dose stated, read-out: AUC0→∞ of colchicine
endpoint label: AUC(0-inf) (ng·h/mL)
# value in ng·h/mL; strip the unit string

What measured AUC(0-inf) goes with `COc1cc2c(c(OC)c1OC)-c1ccc(OC)c(=O)cc1[C@@H](NC(C)=O)CC2` ?
57.5

====

test protocol: Plasma kinetic study of colchicine with and without Schisandrin A
Assay type: in vivo
experimental conditions: male, Sprague Dawley, rat, po, 3 mg/kg, Group2, rats, Schisandrin A 0 mg/kg oral 5 min before colchicine 3.0 mg/kg oral, read-out: AUC0→∞ of colchicine
endpoint label: AUC(0-inf) (µg·h/mL)
# value in µg·h/mL; strip the unit string

What measured AUC(0-inf) goes with `COc1cc2c(c(OC)c1OC)-c1ccc(OC)c(=O)cc1[C@@H](NC(C)=O)CC2` ?
0.0406

====

test protocol: Plasma kinetic study of colchicine with and without Schisandrin A
Assay type: in vivo
experimental conditions: male, Sprague Dawley, rat, po, 3 mg/kg, Group3, rats, Schisandrin A 6.3 mg/kg oral 5 min before colchicine 3.0 mg/kg oral, read-out: AUC0→t of colchicine
endpoint label: AUC(0-t) (ng·h/mL)
# value in ng·h/mL; strip the unit string

What measured AUC(0-t) goes with `COc1cc2c(c(OC)c1OC)-c1ccc(OC)c(=O)cc1[C@@H](NC(C)=O)CC2` ?
74.4

====

test protocol: Plasma kinetic study of colchicine with and without Schisandrin A
Type: in vivo
experimental conditions: male, Sprague Dawley, rat, po, 3 mg/kg, Group4, rats, Schisandrin A 12.6 mg/kg oral 5 min before colchicine 3.0 mg/kg oral, read-out: T1/2 of colchicine (converted)
endpoint label: half-life (h)
# value in h; strip the unit string

What measured half-life goes with COc1cc2c(c(OC)c1OC)-c1ccc(OC)c(=O)cc1[C@@H](NC(C)=O)CC2 [colchicine] ?
6.56

====

test protocol: Plasma kinetic study of colchicine with and without Schisandrin A
Type: in vivo
experimental conditions: male, Sprague Dawley, rat, po, 3 mg/kg, Group7, rats, Schisandrin A 63.0 mg/kg oral 5 min before colchicine 3.0 mg/kg oral, read-out: AUC0→∞ of colchicine
endpoint label: AUC(0-inf) (ng·h/mL)
# value in ng·h/mL; strip the unit string

What measured AUC(0-inf) goes with `COc1cc2c(c(OC)c1OC)-c1ccc(OC)c(=O)cc1[C@@H](NC(C)=O)CC2` ?
98.7

====

test protocol: Plasma kinetic study of celastrol with and without Schisandrin A
Format: in vivo, Sprague Dawley rats
experimental conditions: male, Sprague Dawley, rat, plasma, po, 1.8 mg/kg, Group7; rats, Schisandrin A 88.0 mg/kg oral 5 min before celastrol 1.8 mg/kg oral
endpoint label: Tmax (h)
# value in h; strip the unit string

What measured Tmax goes with `CC1=C(O)C(=O)C=C2C1=CC=C1[C@@]2(C)CC[C@@]2(C)[C@@H]3C[C@](C)(C(=O)O)CC[C@]3(C)CC[C@]12C` ?
6.67

====

test protocol: Plasma kinetic study of celastrol with and without Schisandrin A
Format: in vivo, Sprague Dawley rats
experimental conditions: male, Sprague Dawley, rat, plasma, po, 1.8 mg/kg, Group5; rats, Schisandrin A 22.0 mg/kg oral 5 min before celastrol 1.8 mg/kg oral; read-out: MRT0→t of celastrol
Procedure: 42 Male Sprague Dawley rats (weight, 210-250 g) were maintained on a 12-hour light/dark cycle with free access to water and lab chow for 10-14 h prior to the experiment. Rats were randomly divided into 7 groups (n=6 each) and groups 2-7 received 0 mg/kg, 5.5 mg/kg, and 11.0 mg/kg, 22.0 mg/kg, 44.0 mg/kg and 88.0 mg/kg of Schisandrin A in 1% CMC-Na (300-800 cps) via oral administration, respectively. […]
endpoint label: MRT last (h)
# value in h; strip the unit string

What measured MRT last goes with `CC1=C(O)C(=O)C=C2C1=CC=C1[C@@]2(C)CC[C@@]2(C)[C@@H]3C[C@](C)(C(=O)O)CC[C@]3(C)CC[C@]12C` ?
14.2

====

test protocol: Plasma kinetic study of celastrol with and without Schisandrin A
Assay type: in vivo, Sprague Dawley rats
experimental conditions: male, Sprague Dawley, rat, plasma, po, 1.8 mg/kg, Group5; rats, Schisandrin A 22.0 mg/kg oral 5 min before celastrol 1.8 mg/kg oral
Experimental: 42 Male Sprague Dawley rats (weight, 210-250 g) were maintained on a 12-hour light/dark cycle with free access to water and lab chow for 10-14 h prior to the experiment. Rats were randomly divided into 7 groups (n=6 each) and groups 2-7 received 0 mg/kg, 5.5 mg/kg, and 11.0 mg/kg, 22.0 mg/kg, 44.0 mg/kg and 88.0 mg/kg of Schisandrin A in 1% CMC-Na (300-800 cps) via oral administration, respectively. […]
endpoint label: Cmax (ng/mL)
# value in ng/mL; strip the unit string

What measured Cmax goes with `CC1=C(O)C(=O)C=C2C1=CC=C1[C@@]2(C)CC[C@@]2(C)[C@@H]3C[C@](C)(C(=O)O)CC[C@]3(C)CC[C@]12C` ?
7.45

====

test protocol: Plasma kinetic study of celastrol with and without Schisandrin A
Assay type: in vivo, Sprague Dawley rats
experimental conditions: male, Sprague Dawley, rat, plasma, po, 1.8 mg/kg, Group2; rats, Schisandrin A 0 mg/kg oral 5 min before celastrol 1.8 mg/kg oral; read-out: MRT0→t of celastrol
endpoint label: MRT last (h)
# value in h; strip the unit string

What measured MRT last goes with CC1=C(O)C(=O)C=C2C1=CC=C1[C@@]2(C)CC[C@@]2(C)[C@@H]3C[C@](C)(C(=O)O)CC[C@]3(C)CC[C@]12C [celastrol] ?
12

====

test protocol: Plasma kinetic study of colchicine with and without Schisandrin A
Type: in vivo
experimental conditions: male, Sprague Dawley, rat, po, 3 mg/kg, Group6, rats, Schisandrin A 50.4 mg/kg oral 5 min before colchicine 3.0 mg/kg oral
endpoint label: Cmax (ng/mL)
# value in ng/mL; strip the unit string

What measured Cmax goes with `COc1cc2c(c(OC)c1OC)-c1ccc(OC)c(=O)cc1[C@@H](NC(C)=O)CC2` ?
48.2

====

test protocol: Plasma kinetic study of colchicine with and without Schisandrin A
Type: in vivo
experimental conditions: male, Sprague Dawley, rat, po, 3 mg/kg, Group1, rats, colchicine 3.0 mg/kg oral, no Schisandrin A dose stated, read-out: MRT0→t of colchicine
endpoint label: MRT last (h)
# value in h; strip the unit string

What measured MRT last goes with `COc1cc2c(c(OC)c1OC)-c1ccc(OC)c(=O)cc1[C@@H](NC(C)=O)CC2` ?
4.54

====

test protocol: Plasma kinetic study of colchicine with and without Schisandrin A
Format: in vivo
experimental conditions: male, Sprague Dawley, rat, po, 3 mg/kg, Group2, rats, Schisandrin A 0 mg/kg oral 5 min before colchicine 3.0 mg/kg oral, read-out: T1/2 of colchicine (converted)
endpoint label: half-life

What measured half-life goes with `COc1cc2c(c(OC)c1OC)-c1ccc(OC)c(=O)cc1[C@@H](NC(C)=O)CC2` ?
4.67 h

====

test protocol: Plasma kinetic study of celastrol with and without Schisandrin A
Assay type: in vivo, Sprague Dawley rats
experimental conditions: male, Sprague Dawley, rat, plasma, po, 1.8 mg/kg, Group5; rats, Schisandrin A 22.0 mg/kg oral 5 min before celastrol 1.8 mg/kg oral
endpoint label: Tmax (h)
# value in h; strip the unit string

What measured Tmax goes with `CC1=C(O)C(=O)C=C2C1=CC=C1[C@@]2(C)CC[C@@]2(C)[C@@H]3C[C@](C)(C(=O)O)CC[C@]3(C)CC[C@]12C` ?
9.33

====

test protocol: Plasma kinetic study of colchicine with and without Schisandrin A
Assay type: in vivo
experimental conditions: male, Sprague Dawley, rat, po, 3 mg/kg, Group1, rats, colchicine 3.0 mg/kg oral, no Schisandrin A dose stated, read-out: AUC0→t of colchicine
endpoint label: AUC(0-t) (ng·h/mL)
# value in ng·h/mL; strip the unit string

What measured AUC(0-t) goes with COc1cc2c(c(OC)c1OC)-c1ccc(OC)c(=O)cc1[C@@H](NC(C)=O)CC2 [colchicine] ?
48.9

====

test protocol: Plasma kinetic study of celastrol with and without Schisandrin A
Assay type: in vivo, Sprague Dawley rats
experimental conditions: male, Sprague Dawley, rat, plasma, po, 1.8 mg/kg, Group5; rats, Schisandrin A 22.0 mg/kg oral 5 min before celastrol 1.8 mg/kg oral; read-out: AUC0→∞ of celastrol
endpoint label: AUC(0-inf) (ng·h/mL)
# value in ng·h/mL; strip the unit string

What measured AUC(0-inf) goes with `CC1=C(O)C(=O)C=C2C1=CC=C1[C@@]2(C)CC[C@@]2(C)[C@@H]3C[C@](C)(C(=O)O)CC[C@]3(C)CC[C@]12C` ?
121

====

test protocol: Plasma kinetic study of colchicine with and without Schisandrin A
Assay type: in vivo
experimental conditions: male, Sprague Dawley, rat, po, 3 mg/kg, Group3, rats, Schisandrin A 6.3 mg/kg oral 5 min before colchicine 3.0 mg/kg oral
endpoint label: Cmax (ng/mL)
# value in ng/mL; strip the unit string

What measured Cmax goes with COc1cc2c(c(OC)c1OC)-c1ccc(OC)c(=O)cc1[C@@H](NC(C)=O)CC2 [colchicine] ?
24.4
